# experimental details: Components of the Cytosolic LPS Sensing Pathway: Gene Identification via Genome-wide siRNA Screen
# condition context: RAW264.7 macrophages, IL-1a HTRF, actives lie on both sides, screened at 100 nM (by protocol), cells primed 5 h with Pam3CSK4 first
The campaign covered roughly 53,000 sequences. About 3,700 (7%) were called active. Only a selection was taken, and actives are over-represented in it overall.
Entries annotated with measured z-score
When you answer, write just the number.

Here's what some known entries look like.
sequence code | z-score
GCCAGGAAUAGUGAUUAUUTT against Atp11c | -1.19
GGAAAUGUGGUAAUUCCGATT against Cd44 | 0.256
GGGUGAAAAAGGAAUAAAGTT against Col7a1 | 0.344

Problem: Record request: z-score value, item GGAUUCCUCUAACACAUUUTT against Keg1
Result: 2.07

Problem: Record request: z-score value, item GGCCUUAUCGGCAGAUAUUTT against Tmem44
Result: -1.24

Problem: Record request: z-score value, item CCCAACAAAUACCACUACATT against Usp20
Result: -1.39

Problem: Record request: z-score value, item GGACUUCUUACUGGAAUCATT against Slc5a12
Result: 0.944

Problem: Record request: z-score value, item GGGCUGAUGUGGGCUAAAUTT against Tmem38a
Result: 2.47

====

# experimental details: Components of the Cytosolic LPS Sensing Pathway: Gene Identification via Genome-wide siRNA Screen
# condition context: RAW264.7 macrophages, IL-1a HTRF, actives lie on both sides, screened at 100 nM (by protocol), cells primed 5 h with Pam3CSK4 first
In all, about 53,000 sequences went through this assay and about 3,700 (7%) were called active.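 Rule for the calls: active = gene knockdowns whose robust z-score for IL-1 alpha signal is at least 2 or at most -2, so actives lie on both sides; inactive = the rest.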 The sample as a whole holds a higher share of actives than the screen did.
Your reply should match one of these outcome classes. 1 = active, 0 = inactive

Worked examples follow.
sequence code | classification
CGAGAGUCUAACCAAGUACTT against Arhgdib | 0
GGCAACAUUGAACAUGCCUTT against Stambp | 0
GGAGUUUAUGAAAUUCAACTT against Fcgrt | 0
CGCAGUACCUAUUUGAGCGTT against Hs6st1 | 0
GGAUCGAGUUUGGUGUAGATT against Usp10 | 0

Problem: // return assay outcome for GCUGACUCUUAGAUAAAUATT against Seh1l
Result: 0

Problem: // return assay outcome for GCUUUGUUGGGAGUGAAAUTT against Olfr728
Result: 1

Problem: // return assay outcome for GUCCCACACUGAUAAGAUUTT against Lcorl
Result: 0

Problem: // return assay outcome for GUUUUGUUUCAGAGCAGAATT against Olfr900
Result: 0

Problem: // return assay outcome for GGCAAGAGUGAAUUUAAGATT against Nt5e
Result: 0

Problem: // return assay outcome for GGAAUGUUACCCUUCAACUTT against Slc25a13
Result: 0

Problem: // return assay outcome for GCAUAGAAACCAUGCACAUTT against Acot2
Result: 1

====

# experimental details: Components of the Cytosolic LPS Sensing Pathway: Gene Identification via Genome-wide siRNA Screen;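 further: robust z of the log signal after scaling to non-targeting control siRNA wells of the plate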
# condition context: RAW264.7 macrophages, IL-1a HTRF, actives lie on both sides, screened at 100 nM (by protocol), cells primed 5 h with Pam3CSK4 first
# Procedure: Non-canonical inflammasome activation by cytosolic LPS is a critical component of the host response to Gram-negative bacterial infection, however we lack a comprehensive understanding of the cellular processes that control this pathway. […] Lipofectamine RNAiMAX Transfection Reagent ([…]; Invitrogen) was added in […] serum-free, antibiotic-free media to plate wells using a Thermo Scientific Matrix WellMate and Microplate Stacker. […] The plates were read on an EnVision plate reader (PerkinElmer). […]
In all, about 53,000 sequences went through this assay and about 3,700 (7%) were called active.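 Rule for the calls: active = gene knockdowns whose robust z-score for IL-1 alpha signal is at least 2 or at most -2, so actives lie on both sides; inactive = the rest.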 The entries come from a sample that favours actives as a whole.
Your reply should match one of these outcome classes. True (active), False (inactive)

sequence code | classification
GCUGUCCAAGUACGAGACATT against Atoh7 | False

Problem: // return assay outcome for GGGAAGCCUUUUUUAUCGGTT against V1rb5
Result: False

Problem: // return assay outcome for GGUCAUCUCCAAACCCUCCTT against Rbpj
Result: False

Problem: // return assay outcome for GGAGCUAAAGCUGCUGAUUTT against S100g
Result: False

Problem: // return assay outcome for CGCAAUGUAUGAUUCAAUGTT against Mogat1
Result: False

Problem: // return assay outcome for CCUCAUUUCCAAACUCAAATT against Fbxw13
Result: False

Problem: // return assay outcome for GGAACUGUUUGACAGUGAGTT against Pex19
Result: False

Problem: // return assay outcome for GGGACUUGAUCUCCUGAGUTT against Krtap4-2
Result: False

Problem: // return assay outcome for GGAGAAGGUGACUUAAUAGTT against 9430077A04Rik
Result: False

Problem: // return assay outcome for GGCGUGUCUUGAUAGAAAUTT against Tesmin
Result: False

====

# experimental details: Components of the Cytosolic LPS Sensing Pathway: Gene Identification via Genome-wide siRNA Screen;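 further: robust z of the log signal after scaling to non-targeting control siRNA wells of the plate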
# condition context: RAW264.7 macrophages, IL-1a HTRF, actives lie on both sides, screened at 100 nM (by protocol), cells primed 5 h with Pam3CSK4 first
The campaign covered roughly 53,000 sequences. About 3,700 (7%) were called active.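 How the source made its calls: active means gene knockdowns whose robust z-score for IL-1 alpha signal is at least 2 or at most -2, so actives lie on both sides; inactive means the rest.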 The full list was thinned out, with actives kept by preference.
Your reply should match one of these outcome classes. active, inactive

sequence code | classification
GCAGAAAUACUGGCGAAUATT against Gm9725 | inactive
GGAUCUCUUUGUUAAUGGUTT against Mall | inactive
GGUUCUUGGUUUACAUAAGTT against Slc39a12 | inactive

Problem: // return assay outcome for CCAUGUAAGAUGUUAAGUATT against Abcb1a
Result: inactive

Problem: // return assay outcome for GGCCAAGAAUGAUCGUUCUTT against Gabrb3
Result: inactive

Problem: // return assay outcome for GGGAAUAAUCUACAAGCCATT against Ccdc121
Result: inactive

Problem: // return assay outcome for CGUUCUAUGGAAACUGGAGTT against Acot1
Result: active

Problem: // return assay outcome for GCCCACUCACACCUAUUCUTT against Olfr1388
Result: inactive

Problem: // return assay outcome for GGAAUUUGAAACUUACGGCTT against Oc90
Result: inactive

Problem: // return assay outcome for GGUGAAUGUAUAAGUUAUGTT against Icam1
Result: inactive

Problem: // return assay outcome for GGAGCACUUUGUAUGGAACTT against Ube2q2
Result: active

Problem: // return assay outcome for GGAGAAAAGGAAGUUGAGGTT against Bnip3l
Result: inactive

Problem: // return assay outcome for GGGUAAGCCAAGAAGAAGUTT against Rgs4
Result: inactive

Problem: // return assay outcome for GGGCCUGGAAAACAUUGACTT against Ndufa1
Result: inactive

Problem: // return assay outcome for GCUAAAGCUAAGAUUGAAGTT against Poli
Result: inactive

Problem: // return assay outcome for GGAAACCAGAAAAACUGAATT against Parg
Result: inactive

Problem: // return assay outcome for GGACCUGCCCAAAUCUGAUTT against Fbxo40
Result: inactive

Problem: // return assay outcome for GCUUCCUAGAUCAUGACUGTT against Ube2g2
Result: inactive

Problem: // return assay outcome for GGAAAGGAAAAUCAACUUCTT against Usp14
Result: inactive

Problem: // return assay outcome for CCGUCCAUUGCACUGGAUATT against Arntl2
Result: inactive

====

# experimental details: Components of the Cytosolic LPS Sensing Pathway: Gene Identification via Genome-wide siRNA Screen;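 further: robust z of the log signal after scaling to non-targeting control siRNA wells of the plate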
# condition context: RAW264.7 macrophages, IL-1a HTRF, actives lie on both sides, screened at 100 nM (by protocol), cells primed 5 h with Pam3CSK4 first
Screen size: about 53,000 sequences; about 3,700 (7%) were called active. This is one part of a sample in which actives are shown more often than they occur.
Entries annotated with measured z-score

sequence code | result type | measured result
CCGCGUGUUCCUUCUGAUUTT against S1pr3 | z-score | 1.43 (inactive)

Problem: Record request: z-score value, item CCCUACAGUACUAAUCAAATT against Ptgs2
Result: 0.6 (inactive)

Problem: Record request: z-score value, item GGAUAGAAAACAGUAUCUGTT against Fggy
Result: 1.07 (inactive)

====

# experimental details: Components of the Cytosolic LPS Sensing Pathway: Gene Identification via Genome-wide siRNA Screen;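 further: robust z of the log signal after scaling to non-targeting control siRNA wells of the plate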
# condition context: RAW264.7 macrophages, IL-1a HTRF, actives lie on both sides, screened at 100 nM (by protocol), cells primed 5 h with Pam3CSK4 first
About 3,700 (7%) of roughly 53,000 sequences were called active. Many of the other results were omitted from the sample, so actives are more common in it than they were.
result type: z-score

sequence code | measured result
CCAGUGGUAUGAGGUUGAATT against Cpne3 | 0.238 (inactive)
GCAUGUGUCAAGAUGUCUGTT against Tec | 1.36 (inactive)
GGUCGACAUUGAAGCUAUUTT against Ralyl | -0.517 (inactive)
GGAAGUCUAUGGUUUUUAGTT against Csnk2b | 2.97 (active)
GGCCUUUGUAGUAUCCCAGTT against Nudt16 | -0.709 (inactive)

Problem: Record request: z-score value, item GGUUCCACAGUGGCAAAUGTT against Vmn1r202
Result: 0.957 (inactive)
